system: human Oxytocin (OTR) receptor (Homo sapiens, UniProt P30559)
Construct: expressed in transfected cells
Sequence (P30559 whole entry): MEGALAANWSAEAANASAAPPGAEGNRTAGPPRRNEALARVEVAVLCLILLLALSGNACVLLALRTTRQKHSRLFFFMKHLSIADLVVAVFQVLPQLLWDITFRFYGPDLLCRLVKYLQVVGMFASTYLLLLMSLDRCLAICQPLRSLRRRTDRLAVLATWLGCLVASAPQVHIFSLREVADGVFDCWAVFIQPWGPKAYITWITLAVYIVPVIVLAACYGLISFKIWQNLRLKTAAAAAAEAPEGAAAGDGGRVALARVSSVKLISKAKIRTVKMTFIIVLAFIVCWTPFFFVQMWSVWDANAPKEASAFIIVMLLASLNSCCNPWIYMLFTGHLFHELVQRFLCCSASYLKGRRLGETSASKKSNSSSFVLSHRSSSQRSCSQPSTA
assayMethodText: Calcium flux assay (FLIPR) in CHO cells expressing human OTR
Format: cell-based
conditionDetails: CHO; maximum response normalized to endogenous full agonist = 100%; read-out: hOT efficacy
Where a SMILES comes first, the peptide text is derived from it.
measurementLabel: Emax (%)
Numeric answer only, unit % assumed.

// sample CC[C@H](C)[C@@H]1NC(=O)[C@H](Cc2ccc(O)cc2)NC(=O)CCS(=O)(=O)CC[C@@H](C(=O)N(C)CC(=O)N[C@@H](CO)C(=O)NCC(N)=O)NC(=O)[C@H](CC(N)=O)NC(=O)[C@H](CCC(N)=O)NC1=O [Example 18] (HELM PEPTIDE1{Y.I.Q.N.[O=C([C@H](CCS(=O)(=O)CCC(=O)[*:3])N[*:1])[*:2]].[Sar].S.G.[am]}$PEPTIDE1,PEPTIDE1,1:R1-5:R3$$$V2.0; C-terminus assumed; bridges inferred) , its Emax was 102

Cited source: patent US20170081368A1
